# Protocol text: chemical genetic growth profiling, strain panel (AID 1159580);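 note: tested at 20 µM; growth read once vehicle control cultures reached saturation at 30 °C; lower values mean less growth of the strain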
# Assay setup: S. cerevisiae deletion strains, growth OD, locus YLR320W, strain mms22
Hit rate of the full screen: of about 5,500 compounds, about 2,000 (36%) were called active. Inconclusive results (about 18%) are left out. Cut-off read from the data, not from the text of the source: active = normalized growth mostly below about 0.91 (no sharp cut-off); inconclusive = no clear call, values can overlap the other calls; inactive = mostly above about 0.92. This is one part of the list.
Valid outcomes are listed here; reply with one: TRUE = active, FALSE = inactive

A selection of reference data follows.
NCCC(=O)N[C@@H](Cc1cnc[nH]1)C(=O)O; FALSE
C/C=C(/C)C(=O)OC1CCC2(C)C3CCC4C5(O)CC(O)C6(O)C(CN7CC(C)CCC7C6(C)O)C5(O)CC42OC13O (stereo not drawn); FALSE
OC(CCN1CCCCC1)(c1ccccc1)C1CC2C=CC1C2 (stereo not drawn); FALSE
CC(=O)NCc1c(I)c(NC(C)=O)c(I)c(C(=O)O)c1I; FALSE
CC1OC(=O)C(C(C)C)NC(=O)C(C(C)C)OC(=O)C(C(C)C)NC(=O)C(C)OC(=O)C(C(C)C)NC(=O)C(C(C)C)OC(=O)C(C(C)C)NC(=O)C(C)OC(=O)C(C(C)C)NC(=O)C(C(C)C)OC(=O)C(C(C)C)NC1=O (stereo not drawn); TRUE

Prompt line: For CCC(C)C(NC)C(=O)O (stereo not drawn) , which call appears in the assay record?
Response line: FALSE

Prompt line: Recorded call for COc1cc(C(=O)O[C@H]2CC[C@@]3(C)[C@@H]4CC[C@H]5[C@]6(O)C[C@H](O)[C@@]7(O)[C@@H](CN8C[C@@H](C)CC[C@H]8[C@@]7(C)O)[C@]6(O)C[C@@]53O[C@]24O)cc(OC)c1OC ?
Response line: FALSE

Prompt line: // return assay outcome for C#C[C@]1(O)CCC2C3CCC4=C(CCC(=O)C4)C3CC[C@@]21C (stereo partly drawn)
Response line: FALSE
